Assignment: determine reported growth inhibition for the given molecules.
METHOD SUMMARY: NCI Yeast Anticancer Drug Screen. Data for the bub3 strain (AID 167)
MEASUREMENT CONTEXT: S. cerevisiae bub3 mutant strain, at 50.0 µM, hits give high values
Description: Growth inhibition of yeast strains with defined genetic alterations is measured as a screen for potential anti-cancer activity. Selected strains with alterations in DNA damage repair or cell cycle control were exposed to compounds and growth inhibition was measured relative to vehicle treated controls. The strain used in this assay is bub3
Compounds without any hit were thinned out: in the full panel of roughly 79,000, 15% have a hit.
Numbers only, in %.

Solved entries (count: 3):
>  <MOLECULE>
N#C/C(=N\NC(=O)c1ccccc1)c1ccccc1

>  <growth inhibition, %>
-8.3

$$$$
>  <MOLECULE>
CC/C(=C\c1ccccc1O)c1ccncc1

>  <growth inhibition, %>
23.1

$$$$
>  <MOLECULE>
CC(=O)Oc1cc(C)ccc1C

>  <growth inhibition, %>
-21.8

$$$$

Okay, here is my list. What is growth inhibition for each of these?
1. COC(=O)C(=C/c1ccc(OC)cc1)/C(C(=O)O)=C(/C)c1ccccc1
2. O=C(c1ccccc1)c1cc(Br)c2cccc3c2c1CC3
3. O=C(O)c1ccccc1P(=O)(O)c1ccccc1
4. O=C(CC(=O)N1CCOCC1)N1CCOCC1

A:
1. -18.6
2. 20.4
3. -6.85
4. 19.4

Okay, here is my list. What is growth inhibition for each of these?
1. O=C(/C=C/c1ccccn1)c1ccc(Cl)cc1
2. O=C1C(=O)c2ccccc2C(O)=C1Br
3. CCOC(=O)c1ccc(NC(=O)c2cccc(Cl)c2)cc1
4. C[C@@H]1C[C@H]2[C@@H]3CCC4=CC(=O)C=C[C@]4(C)[C@@]3(F)[C@@H](O)C[C@]2(C)[C@@]1(O)C(=O)CO
5. COc1cc([N+](=O)[O-])ccc1NC(=O)Nc1nccs1
6. CN(C)C(=S)OCC(C)(C)C
7. CCOC(=O)C1(Br)C(c2ccccc2)NC(=O)NC1(C)Br (centres undefined)
8. COC12CC3C4CCC5CC(O)CCC5(C)C4CCC3(C)C1C(C)C1(CCC(C)CO1)O2 (centres undefined)

A:
1. 22.4
2. 28.4
3. 9.5
4. -5.1
5. 22.4
6. 3.4
7. -1.75
8. 1.05

Okay, here is my list. What is growth inhibition for each of these?
1. CCCc1c(O)c2ccccc2[nH]c1=O
2. O=C1NC2CCC(NC(=O)N1c1ccccc1)C1=C2C1
3. c1ccc(CSc2ncnc3oc(-c4ccccc4)nc23)cc1
4. Oc1ccccc1/C=N\Sc1ccc(Br)cc1
5. O=S1(=O)CCC(Br)c2ccccc2C1 (centres undefined)
6. CC(=O)c1ccccc1NC(=O)C(=O)C(C(=O)c1ccccc1-c1ccccc1)C1OC(=O)c2ccccc21 (centres undefined)
7. C(=C\c1cc(CCc2nc3ccccc3[nH]2)[nH]n1)/c1ccccc1
8. O=C1CC2C(=O)N(Cc3ccccc3)C(=O)C2C(=O)N1 (centres undefined)

A:
[15.8, -3.4, 24, 3.95, 3.85, -1.35, -4.25, -3.1]

====

METHOD SUMMARY: NCI Yeast Anticancer Drug Screen. Data for the cln2 rad14 strain (AID 165);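 also: 0% = growth equal to vehicle treated cultures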
MEASUREMENT CONTEXT: S. cerevisiae cln2 rad14 strain, at 50.0 µM, hits give high values
Compounds without any hit were thinned out: in the full panel of roughly 79,000, 15% have a hit.
VALUE KIND: growth inhibition (%)
Give bare numbers, in %.

Solved entries (count: 4):
>  <MOLECULE>
COc1cc(C2c3cc4c(c(OS(=O)(=O)O)c3CC3COC(=O)C32)OCO4)cc(OC)c1OC (stereo not given)

>  <growth inhibition [%]>
-14.4

$$$$
>  <MOLECULE>
CC(=N\N=C\c1ccccn1)/C(C)=N/N=C(C)/C(C)=N/N=C(C)/C(C)=N/N=C/c1ccccn1

>  <growth inhibition [%]>
14.2

$$$$
>  <MOLECULE>
COC(=O)c1ccccc1NCc1cc(Cl)ccc1O

>  <growth inhibition [%]>
92.8

$$$$
>  <MOLECULE>
O=c1[nH]c(=O)n(C2CC(O)C(CO)O2)cc1/C=C/Br (stereo not given)

>  <growth inhibition [%]>
-5.4

$$$$

With those in mind, consider the next molecule.
Record FC(F)(F)c1cc(C2SCc3nc4ccccc4n32)cc(C(F)(F)F)c1 (stereo not given) , field growth inhibition: 6.95
